Source: PubChem BioAssay

assay details: small-molecule microarray binders of probe aShh, primary screen, biochemical, biotinylated probe, 635/667 nm fluorescence (AID 1114);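 note: probe is biotin-labelled aShh protein from a stem cell growth factor screen; measures binding of labelled protein to compounds printed on the slide; score merges feature fluorescence at 667 nm with signal-to-noise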
particulars: higher = more signal
Given measured composite z-score, output 1 (yes) if it is greater than or equal to 0.01 and 0 (no) if not.

Cc1ccc(S[C@]2(C(=O)O)CC(=O)N(Cc3cc(C(F)(F)F)cc(C(F)(F)F)c3)[C@@H]2c2ccc(CO)cc2I)cc1 = 1 (yes)
CCOC(=O)C[C@H]1[C@H](OC(=O)Cc2ccc3c(c2)OCO3)[C@@H](NC(=O)CC(C)C)c2cc(OCCCO)ccc2N1C(=O)c1ccccc1 = 1 (yes)
CCOC(=O)C[C@H]1[C@H](OC(=O)Cc2ccc3c(c2)OCO3)[C@@H](NC(=O)c2ccc3ccccc3c2)c2cc(OCCCO)ccc2N1C(=O)Cc1ccc(OC)cc1 = 0 (no)
N#Cc1ccc(NN2C(C(O)c3ccc(I)cc3)C=CC3C(=O)N(c4ccccc4)C(=O)C32)cc1 (configuration not stated) = 0 (no)
CN(C)CCCC[C@@H]1NC(=O)[C@@H]2C[C@H](C(=O)NCCCCCNC(=O)CS)[C@H](c3ccc(O)cc3)N2C1=O = 1 (yes)
NC(=O)NCC#Cc1ccc2c(c1)[C@]1(C(=O)N2)[C@H](C(N)=O)[C@H]2C(=O)O[C@H](c3ccccc3)[C@H](c3ccccc3)N2[C@@H]1c1ccccc1OCCO = 0 (no)

Confirm if composite z-score reported for the molecule C=CC[C@@]1(C(=O)NCC(O)CO)N=C(c2ccc(OCCCO)cc2)O[C@@H]1c1ccccc1CN=[N+]=[N-] (some centres not stated) is 0.01 or above.
1 (yes)

Confirm if composite z-score reported for the molecule CO[C@H]1O[C@H](CO)[C@@H](OC(=O)CCc2ccccc2)[C@@H]2OC(=O)[C@H](Cc3cccc(Br)c3)C/C=C/C[C@@H](Cc3cccc(Br)c3)C(=O)O[C@@H]12 is 0.01 or above.
1 (yes)

Confirm if composite z-score reported for the molecule COc1ccc([Si](C)(C)[C@H]2[C@H](CCO)O[C@@]3(C(=O)N(Cc4ccc(N5CCCCC5=O)cc4)c4ccccc43)[C@@H]2C)cc1 is 0.01 or above.
1 (yes)

Confirm if composite z-score reported for the molecule COc1cc(CO)cc(I)c1O[C@H]1C=C(C(=O)NCCO)C[C@@H](NCCc2c[nH]c3ccccc23)[C@@H]1O is 0.01 or above.
1 (yes)

Confirm if composite z-score reported for the molecule C=C(COC)/C(=C/C[C@@H](OC(=O)c1ccncc1)c1ccc(OCCO)cc1)c1cc(C(=O)OC)ccc1OC is 0.01 or above.
0 (no)

Confirm if composite z-score reported for the molecule C=CC[C@]1(C(=O)OC)N=C(c2ccc(OCCCO)cc2)O[C@H]1c1ccccc1CN=[N+]=[N-] is 0.01 or above.
0 (no)
